Here, each record is paired with measured amyloid nucleation score data.
# ASSAY DETAILS: amyloid nucleation score (Sup35N fusion, yeast selection) (log enrichment); library NNK2; higher = more nucleation; inactive = no reads after selection;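 also: zero at mode of non-aggregating sequences after 7 days selection at 30°C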
RESULT TYPE: amyloid nucleation score

In [3]: df
Out[3]:
    macromolecule_sequence  test_result
 0    VTNSVSHIVDCCAHSERVWV        0.111
 1    LILGYFRKELFKNASFVLNF         4.05
 2    FWVFTNIESMGLAYCDNQDL         3.09
 3    GFVDELLNKRRLMCLIKTWK        0.179
 4    LGYTSFYSFILKEGMFTAMG        0.434
 5    LEAFWKVKSCSVRTGVYGID       -0.555
 6    NLVVCGNISGCLCYDYSFGK         8.19
 7              LSKHPYGCVL        0.862
 8    MYLVYHYLSVRAFLFMSTMV        -0.39
 9    VVRVFLKGSSCGSLEAFDYV         2.86
10    LAYPMISVFYHELIIDLRSM         3.92
11    SAGVEAREMRTSYLGSSEVG         1.28
12           THLLVVWFDNRYF        0.978
13    DMRLWCVWSSIACDTSYSTS         0.26
